Source listed as patent US7989458B2.

# tgt: human ALK5 (ALK5 T204D kinase domain) (Homo sapiens, UniProt P36897, T204D)
# Construct: The kinase domain of human ALK5 (amino acids 200-503)
# Sequence (P36897 200-503 T204D): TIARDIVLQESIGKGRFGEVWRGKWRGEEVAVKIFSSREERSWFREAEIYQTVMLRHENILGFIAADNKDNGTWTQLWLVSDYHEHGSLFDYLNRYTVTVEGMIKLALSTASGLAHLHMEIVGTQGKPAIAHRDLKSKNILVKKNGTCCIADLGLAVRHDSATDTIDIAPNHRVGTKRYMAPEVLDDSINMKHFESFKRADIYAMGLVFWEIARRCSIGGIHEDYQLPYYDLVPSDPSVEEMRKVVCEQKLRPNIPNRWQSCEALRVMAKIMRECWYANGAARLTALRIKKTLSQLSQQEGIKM
# assay-name: ALK5 kinase activity, [33P] phosphate incorporation into casein
# assay-context: casein substrate, 1 μM unlabelled ATP
# Protocol: The kinase activity of ALK5 is assessed by measuring radiolabelled phosphate [33P] incorporation in to the generic substrate, casein. The kinase domain of human ALK5 (amino acids 200-503) is fused to an N-terminal histidine tag. […] Test compounds and reference compounds are dissolved in assay buffer without DTT containing 5% (v/v) DMSO. […] Total enzyme activity is determined by measuring ALK5 T204D activity in the absence of ALK5 kinase inhibitor reference compounds. […]
parameter-measured: pIC50
One number for each entry, as −log10 of the molar value.

Examples with answers:
compound	parameter-measured	readout-value
Cc1cccc(-c2nc(NCCc3cccc(O)c3)cc(-c3cccnc3)n2)n1 [Example 1.48]	pIC50	7.10
Cc1cccc(-c2nc(NCCc3cccc4[nH]ccc34)cc(-c3cccnc3)n2)n1 [Example 1.6]	pIC50	7.70
c1ccc(-c2nc(NCc3cccc4[nH]ccc34)cc(-c3cccnc3)n2)nc1 [Example 1.1]	pIC50	7.00

// next entry
Bench note: what pIC50 did Cc1cccc(-c2nc(NCCc3c[nH]c4ccccc34)cc(-c3cccnc3)n2)n1 [Example 1.3] show?
7.22
